Biological target: BACE1 (Homo sapiens, UniProt P56817)
Construct: endogenous in cells; host or cells: HEK-293 (stably transfected with wild type APP695 only)
Sequence (P56817 46-501): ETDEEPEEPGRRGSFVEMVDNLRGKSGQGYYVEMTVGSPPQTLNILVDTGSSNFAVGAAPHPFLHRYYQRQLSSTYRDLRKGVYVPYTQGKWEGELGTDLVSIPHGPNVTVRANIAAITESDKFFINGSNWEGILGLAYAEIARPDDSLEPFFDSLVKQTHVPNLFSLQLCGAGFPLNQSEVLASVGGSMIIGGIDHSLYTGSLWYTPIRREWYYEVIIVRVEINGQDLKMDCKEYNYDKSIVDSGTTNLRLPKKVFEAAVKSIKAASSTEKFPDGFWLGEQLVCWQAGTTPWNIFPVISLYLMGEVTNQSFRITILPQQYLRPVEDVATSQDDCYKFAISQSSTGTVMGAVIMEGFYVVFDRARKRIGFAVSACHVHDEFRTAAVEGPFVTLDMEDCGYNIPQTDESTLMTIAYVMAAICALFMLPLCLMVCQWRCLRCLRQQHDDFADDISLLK
Experiment: Cellular BACE1 Inhibition Assay (in vitro cellular Amyloidβ 1-40 production assay, HTRF immunoassay)
Format: cell-based
measured metric: pIC50
Numbers only, as −log10 of the molar value.

INSERT INTO measurements (molecule, obs_value) VALUES
  ('CN1C(=O)C2(N=C1N)c1cc(-c3cncnc3)ccc1CC(C)(C)C2F (centres unmarked)', 7.40);

Batch: pIC50 for all items listed.
1. CN1C(=O)C2(CC3(CCOCC3)Cc3ccc(-c4cncnc4)cc32)N=C1N (centres unmarked)
2. CN1C(=O)C2(CC3(CCOCC3)Cc3ccc(-c4cc(F)cc(Cl)c4)cc32)N=C1N (centres unmarked)
3. CN1C(=O)C2(CCCc3ccc(-c4cncc(Cl)c4)cc32)N=C1N (centres unmarked)
4. CN1C(=O)C2(CC(C)(C)Cc3ccc(/C=C/C4CC4)cc32)N=C1N (centres unmarked)

Marked response:
[6.59, 6.92, 7.55, 7.12]
